Give switch fluorescence ratio for every item shown.
test system: ATP; test: switch fluorescence ratio, 500 uM ATP over buffer (Cy3 cluster intensity, sum of 5 cycles each) (fold (ratio)); higher = stronger signal-on switching upon ATP binding; sequences stand for … in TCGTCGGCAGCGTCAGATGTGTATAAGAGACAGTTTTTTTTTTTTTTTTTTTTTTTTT…TC; details: aptamer strand: ATP DNA aptamer (quencher-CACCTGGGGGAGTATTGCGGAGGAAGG + anchor), 100 nM annealed; ATP concentration: 500 uM;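 also: ATP exposure 15 min at 22 °C before imaging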
Numbers only.

Dear colleague, could you send me switch fluorescence ratio for each of the items below? Thanks.
1. ATAATCCCGA
2. AAGAGCGAGT
3. TCGTGTCGG
4. TGGGGATCCG
5. TGTTATAAAT
6. TATCATGTCG
7. AAGTTTGAAG
8. TTTGTTTGGT

[1.02, 1, 0.98, 1.02, 0.999, 0.986, 0.974, 0.985]

Look at each sequence and report its switch fluorescence ratio.
1. GCCATTTATT
2. CCCATGTGAG
3. GGTCGAGGGT

[0.977, 1.09, 1.02]

###

tested on: ATP; test: switch fluorescence ratio, 500 uM ATP over buffer (Cy3 cluster intensity, sum of 5 cycles each) (fold (ratio)); higher = stronger signal-on switching upon ATP binding; sequences stand for … in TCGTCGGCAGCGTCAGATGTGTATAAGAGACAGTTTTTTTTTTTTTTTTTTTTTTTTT…TC; conditions: aptamer strand: ATP DNA aptamer (quencher-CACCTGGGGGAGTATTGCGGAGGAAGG + anchor), 100 nM annealed; ATP concentration: 500 uM;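 also: ATP exposure 15 min at 22 °C before imaging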
MEASUREMENT_LABEL: switch fluorescence ratio

A selection of reference data follows.
sequence_chain=CGAGCCCTTG result=1.03
sequence_chain=GGAAGCGCTC result=1
sequence_chain=ATTCGATATA result=1.02
sequence_chain=TGTTACTCCT result=1.09
sequence_chain=CGAGTTTTTT result=1
sequence_chain=GATTGGAGCG result=1.01
sequence_chain=GGGGATTGAG result=0.973
sequence_chain=TGGGGGTAGC result=1

Would you mind listing switch fluorescence ratio for each of the following sequences?
1. CAGCGAGTGG
2. GCCCTTAGCG
3. GGGCAGGCGA
4. AAACGTTAGA
5. AGTAGGGTTT

1. 1
2. 1.06
3. 1.01
4. 1.03
5. 0.993

// each sequence listed below needs its switch fluorescence ratio
1. TGGGAGAGTC
2. GGCTGAGGGT
3. TTTGTGCTTT
4. AGCGGAACCC
5. CGGAGAAGGA
6. TGTGATTTAT
7. GGTAAACAGG
8. CTTCTCGGCG

[0.989, 1, 1.01, 1.03, 0.985, 1, 1.04, 1.08]

###

Please go through the items and note down their switch fluorescence ratio.
tested on: ATP; test: switch fluorescence ratio, 500 uM ATP over buffer (Cy3 cluster intensity, sum of 5 cycles each) (fold (ratio)); higher = stronger signal-on switching upon ATP binding; sequences stand for … in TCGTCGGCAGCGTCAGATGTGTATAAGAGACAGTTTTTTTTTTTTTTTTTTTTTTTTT…TC; conditions: aptamer strand: ATP DNA aptamer (quencher-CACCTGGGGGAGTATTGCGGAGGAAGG + anchor), 100 nM annealed; ATP concentration: 500 uM;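 also: ATP exposure 15 min at 22 °C before imaging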
Numbers only.

Solved entries:
sequence_chain=TGAGAGGGGT measurement_target=ATP measurement_label="switch fluorescence ratio" numeric_value=1.05
sequence_chain=GCGTTAACGC measurement_target=ATP measurement_label="switch fluorescence ratio" numeric_value=0.973
sequence_chain=ATTAGGAAAT measurement_target=ATP measurement_label="switch fluorescence ratio" numeric_value=1.08
sequence_chain=ACTTTCGATT measurement_target=ATP measurement_label="switch fluorescence ratio" numeric_value=1.09
sequence_chain=TTTGCCAAAA measurement_target=ATP measurement_label="switch fluorescence ratio" numeric_value=1.14
sequence_chain=AGGAGCGGTT measurement_target=ATP measurement_label="switch fluorescence ratio" numeric_value=1.02
sequence_chain=TATTTTGGCG measurement_target=ATP measurement_label="switch fluorescence ratio" numeric_value=0.986
sequence_chain=TGGGGCGCTG measurement_target=ATP measurement_label="switch fluorescence ratio" numeric_value=0.981

Count: 6. Required value per item: switch fluorescence ratio.
1. AGTTTACGAA
2. TAAAATGGGG
3. TGCGAGTATT
4. GTTGTATCGG
5. GGTTATGGTA
6. AATATTCCAT

1: 1.01; 2: 1; 3: 1.04; 4: 0.991; 5: 0.971; 6: 1.02
